Tested on: Aspergillus fumigatus
ASSAY INFO: Induction of membrane depolarization in Aspergillus fumigatus at 1.56 to 100 uM at pH 5.5 by DiSC3(5)-based fluorescence assay
Assay type: functional, organism-based
The source made the active and inactive calls. The rule behind the calls is not given here.
// one of t (active), f (inactive), no free text

Prompt: // param item: CCCCCC(=O)N[C@@H](Cc1cnc[nH]1)C(=O)N[C@@H](Cc1cnc[nH]1)C(=O)N1CCCN(C(=O)[C@H](Cc2cnc[nH]2)NC(=O)[C@H](Cc2cnc[nH]2)NC(=O)CCCCC)Cc2cc(cc(C(N)=O)c2)CN(C(=O)[C@H](Cc2cnc[nH]2)NC(=O)[C@H](Cc2cnc[nH]2)NC(=O)CCCCC)CCC1 ; yields the recorded call
Response: f

Prompt: Call for entry CCCCCCCCCCCCCCN[C@@H](Cc1cnc[nH]1)C(=O)N[C@@H](Cc1cnc[nH]1)C(=O)O :
Response: f

Prompt: # lookup: test call for CCCCCCCCCCCCCCCCCC(=O)N[C@@H](Cc1c[nH]cn1)C(=O)N[C@@H](Cc1c[nH]cn1)C(=O)N1CCCN(C(=O)[C@H](Cc2c[nH]cn2)NC(=O)[C@H](Cc2c[nH]cn2)NC(=O)CCCCCCCCCCCCCCCCC)Cc2cc(cc(C(N)=O)c2)CN(C(=O)[C@H](Cc2c[nH]cn2)NC(=O)[C@H](Cc2c[nH]cn2)NC(=O)CCCCCCCCCCCCCCCCC)CCC1
Response: f

Prompt: Write down the call the test reported for this compound. Item: CCCCCCCCCCCCCC(=O)N[C@@H](Cc1c[nH]cn1)C(=O)N[C@@H](Cc1c[nH]cn1)C(=O)N1CCCN(C(=O)[C@H](Cc2c[nH]cn2)NC(=O)[C@H](Cc2c[nH]cn2)NC(=O)CCCCCCCCCCCCC)Cc2cc(cc(C(N)=O)c2)CN(C(=O)[C@H](Cc2c[nH]cn2)NC(=O)[C@H](Cc2c[nH]cn2)NC(=O)CCCCCCCCCCCCC)CCC1
Response: t
